Biological target: IGF-1R (Homo sapiens)
Assay: Cellular IGF-1R assay: capture ELISA (MSD) of receptor phosphorylation in Hek293 cells
Details: Hek293-IGF1R cells, 1 h pre-incubation, 10 min IGF stimulation, pIGF1R capture ELISA
Item-by-item account of IC50
Give the value; after it, write the unit.

// worked examples, IC50 included
{"molecule": "CS(=O)(=O)N1CCN([C@H]2C[C@@H](n3cc(-c4cccc(OCC56CCC(CC5)O6)c4)c4c(N)ncnc43)C2)CC1 (relative stereo)", "IC50": "33 nM"}
{"molecule": "NC(=O)[C@@H]1[C@H]2CC[C@H](C2)N1CC1CC(n2cc(-c3cccc(OCC45CCC(CC4)O5)c3)c3c(N)ncnc32)C1 (stereo partly drawn)", "IC50": "6 nM"}
{"molecule": "CC(=O)NN[C@H]1C[C@@H](n2cc(-c3cccc(OCC45CCC(CC4)O5)c3)c3c(N)ncnc32)C1 (relative stereo)", "IC50": "112 nM"}
{"molecule": "CC1(C)CCC(COc2cccc(-c3cn([C@H]4C[C@@H](CN5CCSC5)C4)c4ncnc(N)c34)c2)O1 (relative stereo)", "IC50": "59 nM"}
{"molecule": "Cn1nnnc1C[C@]1(O)C[C@H](n2cc(-c3cccc(OCC45CCC(CC4)O5)c3)c3c(N)ncnc32)C1", "IC50": "598 nM"}

Please turn your attention to the following entry.
Exercise: // lookup IC50 for Nc1ncnc2c1c(-c1cccc(OCC34CCC(CC3)O4)c1)cn2[C@H]1C[C@@H](N2CC(O)C2)C1 (relative stereo)
Key: 138 nM

* * *

Molecular target: RET (Homo sapiens, UniProt P07949)
Sequence (P07949 29-1114, species assumed): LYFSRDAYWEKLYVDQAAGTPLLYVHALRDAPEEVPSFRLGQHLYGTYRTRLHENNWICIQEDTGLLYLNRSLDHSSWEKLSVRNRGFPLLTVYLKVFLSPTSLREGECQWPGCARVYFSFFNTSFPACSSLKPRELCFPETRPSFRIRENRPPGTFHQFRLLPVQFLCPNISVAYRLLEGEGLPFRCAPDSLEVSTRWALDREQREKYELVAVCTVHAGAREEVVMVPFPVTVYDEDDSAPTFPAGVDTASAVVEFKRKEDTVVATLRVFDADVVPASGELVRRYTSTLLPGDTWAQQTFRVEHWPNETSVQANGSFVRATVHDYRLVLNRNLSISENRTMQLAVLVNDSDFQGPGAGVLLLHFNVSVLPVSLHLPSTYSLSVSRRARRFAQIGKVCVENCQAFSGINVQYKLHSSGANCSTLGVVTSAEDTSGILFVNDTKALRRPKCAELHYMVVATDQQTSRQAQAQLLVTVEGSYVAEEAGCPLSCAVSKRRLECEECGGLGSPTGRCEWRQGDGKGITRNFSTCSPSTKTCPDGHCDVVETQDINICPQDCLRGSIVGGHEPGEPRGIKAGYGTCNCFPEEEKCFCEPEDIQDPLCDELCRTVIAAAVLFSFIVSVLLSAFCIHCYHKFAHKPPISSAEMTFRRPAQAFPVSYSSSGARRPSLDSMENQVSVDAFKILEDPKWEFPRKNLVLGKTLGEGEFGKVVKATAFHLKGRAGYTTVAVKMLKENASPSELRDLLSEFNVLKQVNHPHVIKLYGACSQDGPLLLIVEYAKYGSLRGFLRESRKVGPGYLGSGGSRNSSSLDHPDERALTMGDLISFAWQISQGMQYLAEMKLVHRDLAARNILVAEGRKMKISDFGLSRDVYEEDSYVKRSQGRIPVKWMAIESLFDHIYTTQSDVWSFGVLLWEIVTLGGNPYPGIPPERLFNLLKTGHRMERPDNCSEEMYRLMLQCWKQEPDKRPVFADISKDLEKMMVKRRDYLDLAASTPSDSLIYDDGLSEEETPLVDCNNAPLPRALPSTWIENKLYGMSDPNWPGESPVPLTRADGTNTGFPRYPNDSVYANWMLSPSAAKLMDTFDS
Experiment: Kinase activity test, parent compound vs phenol metabolite X
Assay type: biochemical
quantity: IC50 (nM)
Write the number in nM without appending the unit.

Exercise: What value of IC50 on RET (Homo sapiens, UniProt P07949) does Nc1ncnc2c1c(-c1cccc(O)c1)cn2[C@H]1C[C@@H](CN2CCC2)C1 [Phenol metabolite X] have?
Key: 8

* * *

Biological target: IGF-1R (Homo sapiens, UniProt P08069)
Sequence (P08069 31-1367): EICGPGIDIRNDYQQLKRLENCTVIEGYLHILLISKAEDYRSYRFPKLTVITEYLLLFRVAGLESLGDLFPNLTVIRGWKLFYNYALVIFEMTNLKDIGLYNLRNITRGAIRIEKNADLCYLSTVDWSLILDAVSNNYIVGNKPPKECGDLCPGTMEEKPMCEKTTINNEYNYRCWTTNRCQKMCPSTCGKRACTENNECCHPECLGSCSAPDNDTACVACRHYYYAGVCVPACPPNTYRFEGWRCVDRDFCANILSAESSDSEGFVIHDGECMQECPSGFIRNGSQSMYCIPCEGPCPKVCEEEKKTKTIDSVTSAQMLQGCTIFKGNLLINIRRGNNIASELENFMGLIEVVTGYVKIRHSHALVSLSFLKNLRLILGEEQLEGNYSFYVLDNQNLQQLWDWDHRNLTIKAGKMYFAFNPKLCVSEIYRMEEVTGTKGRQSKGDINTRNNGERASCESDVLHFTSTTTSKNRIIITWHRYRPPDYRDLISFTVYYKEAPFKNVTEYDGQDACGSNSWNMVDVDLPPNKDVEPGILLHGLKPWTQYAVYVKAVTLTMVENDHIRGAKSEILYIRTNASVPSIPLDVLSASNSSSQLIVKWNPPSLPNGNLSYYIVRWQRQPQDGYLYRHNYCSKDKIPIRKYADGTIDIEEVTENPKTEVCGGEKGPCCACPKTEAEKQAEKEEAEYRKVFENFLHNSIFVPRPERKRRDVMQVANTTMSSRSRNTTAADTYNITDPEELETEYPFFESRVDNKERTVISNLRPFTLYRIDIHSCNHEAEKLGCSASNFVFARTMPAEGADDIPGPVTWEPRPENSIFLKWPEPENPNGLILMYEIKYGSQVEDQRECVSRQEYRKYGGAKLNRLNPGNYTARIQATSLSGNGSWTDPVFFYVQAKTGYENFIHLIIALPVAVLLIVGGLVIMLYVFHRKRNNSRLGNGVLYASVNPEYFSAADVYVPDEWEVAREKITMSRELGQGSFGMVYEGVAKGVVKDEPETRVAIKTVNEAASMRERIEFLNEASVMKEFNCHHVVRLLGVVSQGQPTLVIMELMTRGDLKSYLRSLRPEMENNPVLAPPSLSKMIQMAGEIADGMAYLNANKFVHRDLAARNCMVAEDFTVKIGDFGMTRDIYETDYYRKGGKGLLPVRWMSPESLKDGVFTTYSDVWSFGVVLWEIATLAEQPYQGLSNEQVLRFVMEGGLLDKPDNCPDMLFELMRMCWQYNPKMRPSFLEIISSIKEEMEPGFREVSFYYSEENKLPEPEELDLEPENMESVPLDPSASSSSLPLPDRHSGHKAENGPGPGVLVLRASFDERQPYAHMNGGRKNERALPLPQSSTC
Test: Cellular IGF-1R assay: capture ELISA (MSD) of receptor phosphorylation in Hek293 cells
Conditions: Hek293-IGF1R cells, 1 h pre-incubation, 10 min IGF stimulation, pIGF1R capture ELISA
So basically, if IC50 comes in under 40 nM it's yes, and if it's 40 nM or more it's no.

Some solved entries appear below for comparison.
{"molecule": "CSC[C@H]1C[C@@H](n2cc(-c3cccc(OC[C@H]4CCCCO4)c3)c3c(N)ncnc32)C1 (relative stereo) [Example 152]", "discrete.label": "no"}
{"molecule": "CN(C)CC1(O)CC(n2cc(-c3cccc(OCC45CCC(CC4)O5)c3)c3c(N)ncnc32)C1 (stereo not shown) [Example 235]", "discrete.label": "no"}

Exercise: Lab log: compare recorded IC50 with 40 nM; is it strictly lower for Cc1cccc(NC[C@H]2C[C@@H](n3cc(-c4cccc(OCC56CCC(CC5)O6)c4)c4c(N)ncnc43)C2)n1 (relative stereo) [Example 194] ?
Key: no

Exercise: Lab log: compare recorded IC50 with 40 nM; is it strictly lower for CC1(C)CCC(COc2cccc(-c3cn([C@H]4C[C@@H](CN5CCS(=O)(=O)CC5)C4)c4ncnc(N)c34)c2)O1 (single isomer, unassigned) [Example 67] ?
Key: yes

Exercise: Lab log: compare recorded IC50 with 40 nM; is it strictly lower for Nc1ncnc2c1c(-c1cccc(OCC34CCC(CC3)O4)c1)cn2[C@H]1CC[C@@H](CN2CCOCC2)CC1 [Example 130] ?
Key: no

Exercise: Lab log: compare recorded IC50 with 40 nM; is it strictly lower for Nc1ncnc2c1c(-c1cccc(OC[C@@H]3CCCO3)c1)cn2[C@H]1C[C@@H](CN2CCS(=O)(=O)CC2)C1 [Example 4] ?
Key: yes

Exercise: Lab log: compare recorded IC50 with 40 nM; is it strictly lower for CN1CCN(C[C@]2(O)C[C@@H](n3cc(-c4cccc(OCC56CCC(CC5)O6)c4)c4c(N)ncnc43)C2)CC1 [Example 123] ?
Key: no

* * *

Item-by-item account of IC50
Target: IGF-1R (Homo sapiens, UniProt P08069)
Assay: Cellular IGF-1R assay: capture ELISA (MSD) of receptor phosphorylation in Hek293 cells
Conditions: Hek293-IGF1R cells, 1 h pre-incubation, 10 min IGF stimulation, pIGF1R capture ELISA
Description: In this assay the activity of the compounds of the invention against Insulin-like growth factor I (IGF-I) induced autophosphorylation of the IGF-IR was determined. The assay was conducted as follows: Compound-mediated inhibition of IGF1R and INSR phosphorylation in Hek293 cells transduced with the corresponding receptors was assessed in a capture ELISA format using the MSD (Meso Scale Discovery) platform. […] IC50 values [nM] were determined using 4-parametric curve-fitting (XLfit software, V4.3.2). […]
Write the number in nM without appending the unit.

// worked examples, IC50 included
{"compound": "NC(=O)[C@@H]1CCCN1[C@H]1C[C@@H](n2cc(-c3cccc(OCC45CCC(CC4)O5)c3)c3c(N)ncnc32)C1", "value": 132}
{"compound": "Nc1ncnc2c1c(-c1cccc(OCC34CCC(CC3)O4)c1)cn2C1CCC(O)(CN2CCS(=O)(=O)CC2)CC1 (stereo not shown)", "value": 464}
{"compound": "CS(=O)(=O)N1CCN(C[C@H]2CC[C@@H](n3cc(-c4cccc(OCC56CCC(CC5)O6)c4)c4c(N)ncnc43)CC2)CC1", "value": 164}
{"compound": "Nc1ncnc2c1c(-c1cccc(OCC34CCC(CC3)O4)c1)cn2[C@@H]1CCN(C2CS(=O)(=O)C2)C1", "value": 319}
{"compound": "NC(=O)[C@H]1CCCN1C[C@H]1C[C@H](n2cc(-c3cccc(OCC4CCCO4)c3)c3c(N)ncnc32)C1 (stereo partly shown)", "value": 116}
{"compound": "CC1(C)CCC(COc2cccc(-c3cn(C4CC(CN5CCC(F)C5)C4)c4ncnc(N)c34)c2)O1 (single isomer, unassigned) [Example 46]", "value": 15}

Please turn your attention to the following entry.
Exercise: // lookup IC50 for Nc1ncnc2c1c(-c1cccc(OCC34CCC(CC3)O4)c1)cn2[C@H]1CC[C@@H](NC(=O)C2CC2)CC1
Key: 174

* * *

Target: IGF-1R (Homo sapiens)
Assay: Cellular IGF-1R assay: capture ELISA (MSD) of receptor phosphorylation in Hek293 cells
Conditions: Hek293-IGF1R cells, 1 h pre-incubation, 10 min IGF stimulation, pIGF1R capture ELISA
So basically, if IC50 comes in under 80 nM it's met, and if it's 80 nM or more it's not met.

Some solved entries appear below for comparison.
{"compound": "[2H]C([2H])([2H])C(=O)NC[C@H]1C[C@@H](n2cc(-c3cccc(OCC45CCC(CC4)O5)c3)c3c(N)ncnc32)C1 [Example 165]", "discrete.label": "met"}
{"compound": "CN1CCN(C(=O)N[C@H]2CC[C@@H](n3cc(-c4cccc(OCC56CCC(CC5)O6)c4)c4c(N)ncnc43)CC2)CC1 [Example 140]", "discrete.label": "not met"}
{"compound": "CC1(C)CCC(COc2cccc(-c3cn([C@H]4C[C@H](CN5CCC[C@@H]5C(N)=O)C4)c4ncnc(N)c34)c2)O1 (stereo partly shown) [Example 72]", "discrete.label": "met"}
{"compound": "CN1CCC(N2CCC(n3cc(-c4cccc(OCC5CCC(C)(C)O5)c4)c4c(N)ncnc43)CC2)CC1 (stereo not shown) [Example 60]", "discrete.label": "not met"}
{"compound": "Nc1ncnc2c1c(-c1cccc(OC[C@@H]3CCCO3)c1)cn2[C@H]1C[C@@H](CN2CCS(=O)(=O)CC2)C1 [Example 156]", "discrete.label": "not met"}
{"compound": "NC(=O)[C@@H]1CCCN1C[C@H]1C[C@@H](n2cc(-c3cccc(OCC45CCC(CC4)O5)c3)c3c(N)ncnc32)C1 [Example 68]", "discrete.label": "met"}
{"compound": "Cc1nccn1C[C@H]1C[C@@H](n2cc(-c3cccc(OCC4CCCCO4)c3)c3c(N)ncnc32)C1 (relative stereo) [Example 154]", "discrete.label": "met"}

Continue with the compound presented below.
Exercise: Lab log: compare recorded IC50 with 80 nM; is it strictly lower for NC(=O)C1CC(F)CN1CC1CC(n2cc(-c3cccc(OCC4CCCCO4)c3)c3c(N)ncnc32)C1 (stereo not shown) [Example 94] ?
Key: not met

* * *

Item-by-item account of log10 IC50
Biological target: IGF-1R (Homo sapiens)
Assay: Cellular IGF-1R assay: capture ELISA (MSD) of receptor phosphorylation in Hek293 cells
Details: Hek293-IGF1R cells, 1 h pre-incubation, 10 min IGF stimulation, pIGF1R capture ELISA
Scale: decimal log of IC50, IC50 in nM.

// worked examples, log10 IC50 included
{"compound": "Nc1ncnc2c1c(-c1cccc(OCC34CCC(CC3)O4)c1)cn2C1CC(O)(CN2CCC(O)C2)C1 (single isomer, unassigned) [Example 203]", "value": 2.70}
{"compound": "Nc1ncnc2c1c(-c1cccc(OCC3CCCCO3)c1)cn2C1CC(CN2CCCC2C(O)C(F)(F)F)C1 (stereo not shown)", "value": 2.29}
{"compound": "CN1CCN([C@H]2C[C@@H](c3nc(-c4cccc(OCC56CCC(CC5)O6)c4)c4c(N)nccn43)C2)CC1", "value": 1.67}
{"compound": "NC(=O)[C@@H]1CCCN1C[C@H]1C[C@H](n2cc(-c3cccc(OCC4CCCCO4)c3)c3c(N)ncnc32)C1 (stereo partly shown)", "value": 2.44}
{"compound": "CSC[C@H]1C[C@@H](n2cc(-c3cccc(OCC4CCCCO4)c3)c3c(N)ncnc32)C1 (relative stereo)", "value": 2.75}

Please turn your attention to the following entry.
Exercise: // lookup log10 IC50 for CN1CCN([C@H]2C[C@H](n3cc(-c4cccc(OCC56CCC(CC5)O6)c4)c4c(N)ncnc43)C2)CC1=O (relative stereo)
Key: 2.28
